# System: UACC-62
# measurement_notes: NCI tumour cell line growth inhibition, 48 h
Active and inactive are the calls of the source. No stated cut-off is given here; in the data, active = GI50 up to about 1.1 µM and inactive = higher.
Thanks in advance; please answer with one of these: 1 (active), 0 (inactive)

C[C@@]1(O)C[C@@H](N2C(=O)O[C@@H](c3ccccc3)[C@H]2c2ccccc2)[C@@H]1COCc1ccccc1
0
Cc1cccc(/N=N/C(=N\NC(=O)c2cc(Cl)ccc2O)c2ccc(N(CCC#N)CCC#N)cc2C)c1
0
COc1ccc2nc(N/N=C/C(C)=N/Nc3cc(C)c4cc(OC)ccc4n3)cc(C)c2c1
0
C=C(C(=O)O[C@H]1C/C(C)=C/CC/C(CO)=C/[C@H]2C(=O)OC(=C)[C@H]12)C(O)CO (some centres undefined)
0
CC(C)N1CSC(=S)N(Cc2ccccc2)C1
0

Hi, sorry to bother you, what did the test record for COc1ccccc1NC(=O)CC(=O)N1N=C(N2c3ccccc3Sc3ccccc32)CC1c1ccccc1 (centres undefined) ? 0
